molecular target: Cys12 of the KRAS 4B G12C protein (Homo sapiens, UniProt P01116, G12C); construct: This protein contained 188 amino acids in total, including an N-terminal 6-Histidine tag; made in house; host or cells: E. coli BL21; assay: In vitro covalent adduct formation (CAF) assay, LC-MS intact mass; assay type: binding; details: 10 uM compound, 60 min incubation
Please use yes (1) for % CAF 10 uM @ 60 min under 90% and no (0) for everything else, ties included.

Example cases with answers are listed next.
Molecule | Assigned label
C=CC(=O)N1[C@H](C)CN(c2nc(=O)n3c4c(c(-c5cccc6cnn(C)c56)c(C(F)(F)F)cc24)SC[C@@H]3COC)C[C@@H]1C (atropisomer, axis not shown) [Example 1131] | yes (1)
C=CC(=O)N1[C@H](C)CN(c2nc(=O)n3c4c(c(-c5cc(Cl)c(F)cc5F)c(C(F)(F)F)cc24)SCC2(COC2)C3)C[C@@H]1C (atropisomer, axis not shown) [Example 1124] | no (0)
C=CC(=O)N1[C@H](C)CN(c2nc(=O)n3c4c(c(-c5cc(Cl)c(F)cc5F)c(C(F)(F)F)cc24)SC[C@@H](N2CCOCC2)C3)C[C@@H]1C (atropisomer, axis not shown) [Example 1135] | yes (1)
C=CC(=O)N1[C@H](C)CN(c2nc(=O)n3c4c(c(-c5ccc(F)cc5)c(C(F)(F)F)cc24)SCC2(COC2)C3)C[C@@H]1C | no (0)
C=CC(=O)N1CCN(c2nc(=O)n3c4c(c(-c5cccc6cnn(C)c56)c(C(F)(F)F)cc24)SC[C@@H]3COC)CC1 (atropisomer, axis not shown) | no (0)
C=CC(=O)N1CCN(c2nc(=O)n3c4c(c(-c5ccc(F)cc5F)c(C(F)(F)F)cc24)SCC2(COC2)C3)CC1 (atropisomer, axis not shown) [Example 1128] | yes (1)
C=CC(=O)N1[C@H](C)CN(c2nc(=O)n3c4c(c(-c5cccc6cnn(C)c56)c(C(F)(F)F)cc24)SCC2(COC2)C3)C[C@@H]1C (atropisomer, axis not shown) [Example 1133] | yes (1)
C=CC(=O)N1C[C@H](C)N(c2nc(=O)n3c4c(c(-c5cc(Cl)c(F)cc5F)c(C(F)(F)F)cc24)SCC2(COC2)C3)C[C@H]1C (single isomer, unassigned) [Example 1120] | yes (1)

Let's switch to this molecule now.
Quick check: % CAF 10 uM @ 60 min of `C=CC(=O)N1[C@H](C)CN(c2nc(=O)n3c4c(c(-c5ccc(F)cc5F)c(Cl)cc24)SC[C@@H]3COC)C[C@@H]1C` under 90%?
no (0)
